- methodDescription: Selective ratio of HC50 for human RBC to IC50 for human HeLa cells
- Format: toxicity
- settings: human red blood cells versus HeLa cells
property: selectivity ratio
Keep the answer to the number alone.

Previously resolved entries follow.
{"testSmiles": "CCCCN1C(=O)[C@@H](Cc2ccccc2)NC(=O)[C@H](CC(C)C)NC(=O)[C@H](CCCN)NC(=O)[C@H]([C@@H](C)CC)NC(=O)c2cc(c(C)s2)C2=C(CCC2)c2cc(sc2C)C(=O)[C@H]2CCCN2C(=O)[C@H](CC(C)C)NC(=O)[C@H](CCCN)NC(=O)[C@H]([C@@H](C)CC)NC(=O)[C@@H]1CC(C)C", "selectivity ratio": 0.8}
{"testSmiles": "CC[C@H](C)[C@@H]1NC(=O)c2cc(c(C)s2)C2=C(CCC2)c2cc(sc2C)C(=O)[C@H]2CCCN2C(=O)[C@H]([C@@H](C)CC)NC(=O)[C@H](CCCN)NC(=O)[C@H](CC(C)C)NC(=O)[C@H](CC(C)C)N(C)C(=O)[C@@H](Cc2ccccc2)NC(=O)[C@H]([C@@H](C)CC)NC(=O)[C@H](CCCN)NC1=O", "selectivity ratio": 1}
{"testSmiles": "Cc1sc2cc1C1=C(CCC1)c1cc(sc1C)C(=O)[C@H]1CCCN1C(=O)[C@H](CC(C)C)NC(=O)[C@H](CCCCN)NC(=O)[C@H](C(C)C)NC(=O)[C@H](CCCCN)N(C)C(=O)[C@@H](Cc1ccccc1)NC(=O)[C@H](CC(C)C)NC(=O)[C@H](CCCCN)NC(=O)[C@H](C(C)C)NC2=O", "selectivity ratio": 1.3}
{"testSmiles": "CC(C)[C@@H]1NC(=O)C2=CC3=C4CCCC4=C4C=C(S[C@]4(C)[C@@]3(C)S2)C(=O)[C@H]2CCCN2C(=O)[C@H]([C@H](O)C(C)C)NC(=O)[C@H](CCCN)NC(=O)[C@H](C(C)C)NC(=O)[C@@H]2CCCN2C(=O)[C@@H](Cc2ccccc2)NC(=O)[C@H](C(C)C)NC(=O)[C@H](CCCN)NC1=O", "selectivity ratio": 0.7}
{"testSmiles": "CC(C)NC(=O)C[C@@H]1NC(=O)C2=CC3=C4CCCC4=C4C=C(S[C@]4(C)[C@@]3(C)S2)C(=O)[C@H]2CCCN2C(=O)[C@H](C(C)C)NC(=O)[C@H](CCCN)NC(=O)[C@H](C(C)C)NC(=O)[C@@H]2CCCN2C(=O)[C@@H](Cc2ccccc2)NC(=O)[C@H](C(C)C)NC(=O)[C@H](CCCN)NC1=O", "selectivity ratio": 2}
{"testSmiles": "Cc1sc2cc1C1=C(CCC1)c1cc(sc1C)C(=O)[C@H]1CCCN1C(=O)[C@H](CC(C)C)NC(=O)[C@H](CCCCN)NC(=O)[C@H](C(C)C)NC(=O)[C@H](CCCCN)NC(=O)[C@H](CC(C)C)NC(=O)[C@@H]1CCCN1C(=O)[C@@H](Cc1ccccc1)NC(=O)[C@H](C(C)C)NC(=O)[C@H](CCCCN)NC(=O)[C@H](CC(C)C)NC(=O)[C@H](CCCCN)NC(=O)[C@H](C(C)C)NC2=O", "selectivity ratio": 0.2}

Here is the next item to consider.
Problem: For the compound Cc1sc2cc1C1=C(CCC1)c1cc(sc1C)C(=O)[C@H]1CCCN1C(=O)[C@H](C(C)C)NC(=O)[C@H](CCCN)NC(=O)[C@H](C(C)C)NC(=O)[C@@H]1CCCN1C(=O)[C@@H](Cc1ccccc1)NC(=O)[C@H](C(C)C)NC(=O)[C@H](CCCN)NC(=O)[C@H](CC(=O)NC(C)C)NC2=O , give its measured selectivity ratio value.
Solution: 2.3
